Origin of values: paper PMC4912613

Test system: Dd2
assay.summary: Cross-resistance EC50 assay, Dd2 parent
Type: cell-based, Plasmodium falciparum
measurement.conditions: Plasmodium falciparum, DD2, 72 h, read-out: Dd2 (PARENT) EC50 (µM) Average EC50
Output rule met for records whose EC50 is lower than 0.5 µM, rule not met for records at or above 0.5 µM.

>  <compound>
Cc1nc2ccc3ccc(CNc4ccc(C(=O)CC(CCC(=O)O)C(=O)O)cc4)cc3c2c(=O)[nH]1.Cl (centres unmarked) [MMV027634]

>  <assigned.category>
rule met

$$$$
>  <compound>
Brc1ccc(Nc2nc3ccccc3nc2Nc2ccc(Br)cc2)cc1 [MMV007224]

>  <assigned.category>
rule not met

$$$$
>  <compound>
FC(F)(F)c1cccc(Nc2nc3ccccc3nc2Nc2cccc(C(F)(F)F)c2)c1 [MMV665794]

>  <assigned.category>
rule met

$$$$
>  <compound>
CC(C)c1cccc(C(NC(=O)C2Cc3ccccc3CN2C(=O)c2cccc(N3CCOCC3)c2)C2CCCC2)c1 (centres unmarked) [MMV028038]

>  <assigned.category>
rule not met

$$$$
>  <compound>
COc1cc(-c2nc(-c3ccccc3)c(-c3ccccc3)[nH]2)ccc1OCCN(C)C [MMV027496]

>  <assigned.category>
rule not met

$$$$
>  <compound>
CN(C)CCCN(C)C(=O)C1Cc2cc(-c3ccccc3)ccc2N1S(=O)(=O)c1ccccc1 (centres unmarked) [MMV028895]

>  <assigned.category>
rule not met

$$$$

Determine whether this compound shows EC50 lower than 0.5 µM (ties excluded): COCCNCC(O)Cn1c2ccc(Cl)cc2c2cc(Cl)ccc21 (centres unmarked) [MMV019017]
rule not met

Determine whether this compound shows EC50 lower than 0.5 µM (ties excluded): CNCc1ccc2nc(-c3coc(Cc4cc(Cl)ccc4OCC(C)C)n3)[nH]c2c1.Cl.Cl [MMV026596]
rule met

Determine whether this compound shows EC50 lower than 0.5 µM (ties excluded): CCN(CC)S(=O)(=O)c1ccc(-c2csc(Nc3ccc(C)c(C)c3)n2)cc1 [MMV009108]
rule not met

Determine whether this compound shows EC50 lower than 0.5 µM (ties excluded): COC(=O)c1ccc(C2C3=C(O)CC(c4ccc(F)cc4)CC3=Nc3ccccc3N2C(=O)c2ccccc2)cc1 (centres unmarked) [MMV011438]
rule not met

Determine whether this compound shows EC50 lower than 0.5 µM (ties excluded): CN(C)CCCNCc1ccc(-c2ccc(Cl)c(Cl)c2)o1 [MMV673964]
rule not met

Determine whether this compound shows EC50 lower than 0.5 µM (ties excluded): CN1CCN(c2ccc(Nc3c4ccccc4nc4ccccc34)cc2)CC1 [MMV006172]
rule met

Determine whether this compound shows EC50 lower than 0.5 µM (ties excluded): COc1ccc(N2CCN(C(CNC(=O)C3CCCCC3)c3ccc4c(c3)OCO4)CC2)cc1 (centres unmarked) [MMV019662]
rule met

----------
// reported EC50 for each item listed
Tested on: W2
assay.summary: Cross-resistance EC50 assay, W2 parent
Assay type: cell-based, Plasmodium falciparum
measurement.conditions: Plasmodium falciparum, 48 h, read-out: W2F6 (PARENT) Average EC50
Record the value in nM, omitting the unit from your answer.

Examples with answers:
>  <compound>
COC(=O)c1ccc(C2C3=C(O)CC(c4ccc(F)cc4)CC3=Nc3ccccc3N2C(=O)c2ccccc2)cc1 (centres unmarked)

>  <measured.target>
W2

>  <EC50, nM>
644

$$$$
>  <compound>
OC(CNC1CCCCC1)Cn1c2ccccc2c2ccccc21 (centres unmarked)

>  <measured.target>
W2

>  <EC50, nM>
126

$$$$
>  <compound>
O=C(Nc1ccccc1O)c1ccc(Oc2cccc(C(=O)Nc3ccccc3O)c2)cc1

>  <measured.target>
W2

>  <EC50, nM>
515

$$$$
>  <compound>
CCCCCCCN(Cc1ccc(OC(C)(C)C(=O)OCC)cc1)C(=O)Nc1ccc(Cl)cc1OCC

>  <measured.target>
W2

>  <EC50, nM>
361

$$$$
>  <compound>
COc1ccc(N2CCN(C(CNC(=O)C3CCCCC3)c3ccc4c(c3)OCO4)CC2)cc1 (centres unmarked)

>  <measured.target>
W2

>  <EC50, nM>
428

$$$$

Using the record for `Nc1ccc(-c2nc3cc(Oc4ccc(Oc5ccc6[nH]c(-c7ccc(N)cc7)nc6c5)cc4)ccc3[nH]2)cc1` , report its EC50.
279

Using the record for `Cc1c(C)n(Cc2ccc(F)cc2)c2ccc(C(=O)NCc3ccco3)cc12` , report its EC50.
805

Using the record for CN(C)CCCN(C)C(=O)C1Cc2cc(-c3ccccc3)ccc2N1S(=O)(=O)c1ccccc1 (centres unmarked) , report its EC50.
153

----------
System: HepG2
assay.summary: Hepatocyte toxicity
Format: cell-based, human
measurement.conditions: toxicity fold shift for the liver stage (hepatocyte toxicity vs liver stage EC50)
Description: As drugs that eliminate multiple stages of the parasite lifecycle will be critical components in global efforts to eliminate malaria, we were interested in knowing whether the compounds in our study had additional activities against either the liver and/or transmission stages of the parasite lifecycle. To determine this, we first evaluated the compounds in additional phenotypic assays. […]
measured.attribute: Liver Stage / Hepatocyte Toxicity
Form field (numeric): enter value without unit.

Examples with answers:
>  <compound>
CN1CCN(c2ccc(Nc3c4ccccc4nc4ccccc34)cc2)CC1 [MMV006172]

>  <Liver Stage / Hepatocyte Toxicity>
2.21

$$$$
>  <compound>
O=C(NC(c1ccccc1)c1ccc2cccnc2c1O)c1ccccc1 (stereo not drawn) [MMV666080]

>  <Liver Stage / Hepatocyte Toxicity>
2.82

$$$$
>  <compound>
Brc1ccc(Nc2nc3ccccc3nc2Nc2ccc(Br)cc2)cc1 [MMV007224]

>  <Liver Stage / Hepatocyte Toxicity>
3.63

$$$$
>  <compound>
CCN(CC)CCn1c(=N)n(CC(O)c2ccc(Cl)c(Cl)c2)c2ccccc21.Cl (stereo not drawn) [MMV000248]

>  <Liver Stage / Hepatocyte Toxicity>
3.72

$$$$

// next item, Liver Stage / Hepatocyte Toxicity requested
Using the record for COc1ccc(-c2nc(NC(=O)Cc3ccc4c(c3)OCCO4)sc2C)cc1 [MMV019719] , report its Liver Stage / Hepatocyte Toxicity.
1.94

----------
Test system: GNF156R (PfCARL L830V, S1076I and M81I, parent Dd2)
assay.summary: Cross-resistance EC50 assay, GNF156R
Assay type: cell-based
measurement.conditions: Plasmodium falciparum, SYBR green 72 hour assay, asynchronized parasites, 96-well or 1536-well format
Output yes for records whose EC50 is lower than 0.4 µM, no for records at or above 0.4 µM.

Examples with answers:
>  <compound>
CCCN(CCC)CC(O)COc1ccccc1C(=O)Nc1ccccc1 (stereo not drawn)

>  <measured.target>
GNF156R (PfCARL L830V, S1076I and M81I, parent Dd2)

>  <assigned.category>
yes

$$$$
>  <compound>
COC(=O)c1ccc(C2C3=C(O)CC(c4ccc(F)cc4)CC3=Nc3ccccc3N2C(=O)c2ccccc2)cc1 (stereo not drawn)

>  <measured.target>
GNF156R (PfCARL L830V, S1076I and M81I, parent Dd2)

>  <assigned.category>
no

$$$$
>  <compound>
CC(NCc1ccccc1)c1cc(Cl)ccc1O (stereo not drawn)

>  <measured.target>
GNF156R (PfCARL L830V, S1076I and M81I, parent Dd2)

>  <assigned.category>
no

$$$$
>  <compound>
c1cc(-c2cnc3ccc(-c4ccc(N5CCOCC5)cc4)nn23)ccn1

>  <measured.target>
GNF156R (PfCARL L830V, S1076I and M81I, parent Dd2)

>  <assigned.category>
yes

$$$$
>  <compound>
COc1ccc(-c2nc(NC(=O)Cc3ccc4c(c3)OCCO4)sc2C)cc1

>  <measured.target>
GNF156R (PfCARL L830V, S1076I and M81I, parent Dd2)

>  <assigned.category>
yes

$$$$
>  <compound>
Cc1cc(Nc2ccc(OCc3ccccc3)cc2)nc2cc(O)ccc12

>  <measured.target>
GNF156R (PfCARL L830V, S1076I and M81I, parent Dd2)

>  <assigned.category>
yes

$$$$
>  <compound>
c1cncc(-c2cc(N3CCC(CN4CCOCC4)CC3)nc(-c3ccncc3)n2)c1

>  <measured.target>
GNF156R (PfCARL L830V, S1076I and M81I, parent Dd2)

>  <assigned.category>
no

$$$$
>  <compound>
OC(CNC1CCCCC1)Cn1c2ccc(I)cc2c2cc(I)ccc21 (stereo not drawn)

>  <measured.target>
GNF156R (PfCARL L830V, S1076I and M81I, parent Dd2)

>  <assigned.category>
yes

$$$$

In the following, a different compound is considered.
Determine whether this compound shows EC50 lower than 0.4 µM (ties excluded): `Cc1c(C)n(Cc2ccc(F)cc2)c2ccc(C(=O)NCc3ccco3)cc12`
no

----------
// reported EC50 for each item listed
System: TM90C2A (DHFR, folate pathway; compared with 3D7)
assay.summary: Cross-resistance EC50 assay, TM90C2A
Assay type: cell-based
measurement.conditions: Plasmodium falciparum, 48 h, read-out: TM90C2A (3D7 Parent) Average EC50
Record the value in nM, omitting the unit from your answer.

Examples with answers:
>  <compound>
COc1cc(-c2nc(-c3ccccc3)c(-c3ccccc3)[nH]2)ccc1OCCN(C)C [MMV027496]

>  <measured.target>
TM90C2A (DHFR, folate pathway; compared with 3D7)

>  <measured.attribute>
EC50

>  <observed>
300

$$$$
>  <compound>
CN(C)Cc1ccc(-c2cc3c(-c4ccc(CN(C)C)cc4)ccnc3[nH]2)cc1.O=C(O)C(F)(F)F [MMV022224]

>  <measured.target>
TM90C2A (DHFR, folate pathway; compared with 3D7)

>  <measured.attribute>
EC50

>  <observed>
738

$$$$
>  <compound>
CC(C)(C)OC(=O)N1CCN(c2ccccc2NC(=O)c2cccc(C(F)(F)F)c2Oc2ccc(F)cc2)CC1 [MMV030666]

>  <measured.target>
TM90C2A (DHFR, folate pathway; compared with 3D7)

>  <measured.attribute>
EC50

>  <observed>
544

$$$$

Using the record for CC(NCc1ccccc1)c1cc(Cl)ccc1O (centres unmarked) [MMV665789] , report its EC50.
1480

Using the record for COc1ccc2c3c([nH]c2c1)[C@H](CO)N(C(C)=O)CC31CCN(C(=O)Nc2ccccc2F)CC1 [MMV673482] , report its EC50.
352

Using the record for Cl.c1ccc2c(NCCCCCCNc3c4c(nc5ccccc35)CCCC4)c3c(nc2c1)CCCC3 [MMV019555] , report its EC50.
280

Using the record for Cc1ccc(S(=O)(=O)n2cc(-c3ccnc(N)c3)c3cc(Br)cnc32)cc1 [MMV024114] , report its EC50.
1050

Using the record for O=C(Nc1ccccc1O)c1ccc(Oc2cccc(C(=O)Nc3ccccc3O)c2)cc1 [MMV665888] , report its EC50.
1040
